Cited source for all entries: ChEMBL document CHEMBL1126854

# Experiment notes: Plasma clearance in CD rat at a dose of 5 mg/kg given intravenously
# Format: ADME, organism-based
# Set-up: dose 5 mg/kg, route intravenous
# Experimental setup: iv
Measured property: clearance
Just so you know, I need the unit written after the number.

Look up clearance: CCNC(=O)[C@@H](NC(=O)Cc1ccccc1)[C@@H]1N[C@@H](C(=O)NCCNC(=O)[C@@H]2N[C@@H]([C@H](NC(=O)Cc3ccccc3)C(=O)NCC)SC2(C)C)C(C)(C)S1
12 mL/min

====

# Experiment notes: Plasma clearance in Beagles dog at a dose of 1 mg/kg given intravenously
# Format: ADME, organism-based, Canis lupus familiaris
# Set-up: dose 1 mg/kg, route intravenous
# Experimental setup: beagle, iv
Measured property: clearance
Give the number first and the unit second.

Requested read-out: clearance. Entry: CCNC(=O)[C@@H](NC(=O)Cc1ccccc1)[C@@H]1N[C@@H](C(=O)NCCNC(=O)[C@@H]2N[C@@H]([C@H](NC(=O)Cc3ccccc3)C(=O)NCC)SC2(C)C)C(C)(C)S1
300 mL/min

====

# Target: Human immunodeficiency virus type 1 protease (Human immunodeficiency virus 1, UniProt Q72874)
Measured property: IC50 (nM)
Quick reminder: number only, in nM, skip the unit.

Here are 5 compounds together with their reported answers.
- Given smiles: "CCNC(=O)[C@@H](NC(=O)Cc1ccccn1)[C@@H]1N[C@@H](C(=O)NCCNC(=O)[C@@H]2N[C@@H]([C@H](NC(=O)Cc3ccccn3)C(=O)NCC)SC2(C)C)C(C)(C)S1"
  Reading unit: "nM"
  IC50: 19
- Given smiles: "CC1(C)S[C@H]([C@H](NC(=O)Cc2ccccc2)C(=O)NCCO)N[C@H]1C(=O)NCCNC(=O)[C@@H]1N[C@@H]([C@H](NC(=O)Cc2ccccc2)C(=O)NCCO)SC1(C)C"
  Reading unit: "nM"
  IC50: 40
- Given smiles: "CCNC(=O)[C@@H](N)[C@@H]1N[C@@H](C(=O)NCCNC(=O)[C@@H]2N[C@@H]([C@H](N)C(=O)NCC)SC2(C)C)C(C)(C)S1"
  Reading unit: "nM"
  IC50: 120000
- Given smiles: "CC(C)(C)OC(=O)CNC(=O)[C@@H](NC(=O)Cc1ccccc1)[C@@H]1N[C@@H](C(=O)NCCNC(=O)[C@@H]2N[C@@H]([C@H](NC(=O)Cc3ccccc3)C(=O)NCC(=O)OC(C)(C)C)SC2(C)C)C(C)(C)S1"
  Reading unit: "nM"
  IC50: 21
- Given smiles: "CC1(C)S[C@H]([C@H](NC(=O)c2ccccc2-c2ccccc2)C(=O)NCc2ccccc2)N[C@H]1C(=O)NCCNC(=O)[C@@H]1N[C@@H]([C@H](NC(=O)c2ccccc2-c2ccccc2)C(=O)NCc2ccccc2)SC1(C)C"
  Reading unit: "nM"
  IC50: 7.5

What measured IC50 goes with CCNC(=O)[C@@H](NC(=O)/C=C\c1ccccc1)[C@@H]1N[C@@H](C(=O)NCCNC(=O)[C@@H]2N[C@@H]([C@H](NC(=O)/C=C\c3ccccc3)C(=O)NCC)SC2(C)C)C(C)(C)S1 ?
2.9

Entry to check: CC1(C)S[C@H]([C@H](NC(=O)Cc2ccccc2)C(=O)NCc2ccccn2)N[C@H]1C(=O)NCCNC(=O)[C@@H]1N[C@@H]([C@H](NC(=O)Cc2ccccc2)C(=O)NCc2ccccn2)SC1(C)C
11

Would you mind doing CC1(C)S[C@H]([C@H](NC(=O)Cc2ccccc2)C(=O)N2CCCCC2)N[C@H]1C(=O)NCCNC(=O)[C@@H]1N[C@@H]([C@H](NC(=O)Cc2ccccc2)C(=O)N2CCCCC2)SC1(C)C as well?
6.9

Then what about the compound CC(C)(C)OC(=O)CNC(=O)[C@@H](NC(=O)c1ccccc1-c1ccccc1)[C@@H]1N[C@@H](C(=O)NCCNC(=O)[C@@H]2N[C@@H]([C@H](NC(=O)c3ccccc3-c3ccccc3)C(=O)NCC(=O)OC(C)(C)C)SC2(C)C)C(C)(C)S1 ?
4.1

Please do the same for CC1(C)S[C@H]([C@H](NC(=O)Cc2ccccc2)C(=O)NCC(=O)O)N[C@H]1C(=O)NCCNC(=O)[C@@H]1N[C@@H]([C@H](NC(=O)Cc2ccccc2)C(=O)NCC(=O)O)SC1(C)C as well.
39
